# Measurement Target: Rat recombinant PDE10a (rPDE10a) (Rattus norvegicus (Rat), UniProt Q9QYJ6)
# Sequence (Q9QYJ6 whole entry): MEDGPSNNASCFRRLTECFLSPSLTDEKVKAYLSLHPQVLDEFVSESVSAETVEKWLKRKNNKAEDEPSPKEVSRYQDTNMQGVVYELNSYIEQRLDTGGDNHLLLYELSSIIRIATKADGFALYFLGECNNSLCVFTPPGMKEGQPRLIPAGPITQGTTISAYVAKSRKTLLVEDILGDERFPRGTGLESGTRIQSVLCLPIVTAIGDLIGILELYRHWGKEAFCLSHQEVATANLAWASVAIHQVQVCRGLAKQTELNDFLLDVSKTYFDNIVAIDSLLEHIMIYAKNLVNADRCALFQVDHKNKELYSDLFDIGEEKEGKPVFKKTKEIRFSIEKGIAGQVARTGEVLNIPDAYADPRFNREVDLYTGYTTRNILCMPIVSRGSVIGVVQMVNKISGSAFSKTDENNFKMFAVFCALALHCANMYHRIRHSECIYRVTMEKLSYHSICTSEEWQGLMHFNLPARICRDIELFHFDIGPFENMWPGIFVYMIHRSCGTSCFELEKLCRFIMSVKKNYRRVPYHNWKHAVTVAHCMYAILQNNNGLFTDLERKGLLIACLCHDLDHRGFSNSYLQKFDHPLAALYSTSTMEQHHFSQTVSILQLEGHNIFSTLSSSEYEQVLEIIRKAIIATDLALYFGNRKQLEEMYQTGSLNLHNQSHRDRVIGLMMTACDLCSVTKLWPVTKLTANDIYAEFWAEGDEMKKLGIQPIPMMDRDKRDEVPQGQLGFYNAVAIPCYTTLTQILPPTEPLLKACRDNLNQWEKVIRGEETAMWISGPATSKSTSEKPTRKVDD
# Test Name: In vitro assay PDE10a: rat recombinant PDE10a SPA with 3H-cAMP substrate, IC50
# Condition Parameters: 60 nM cAMP, read-out: rPDE10a2 IC50
pIC50: −log10 of the molar value. Where a name gives a salt, the structure may show the parent alone.
Give Condition met when the value for pIC50 is at least 8. Give Condition not met when it is less.

INSERT INTO results (compound, class_name) VALUES
  ('O=C(O)c1cccc2nc(/C=C/c3cn4nccc(N5CCOCC5)c4n3)ccc12', 'Condition met'),
  ('O=c1[nH]c(-c2ccc(-c3c(/C=C/c4ccc5ccccc5n4)nc4c(N5CCOCC5)ccnn34)cn2)no1', 'Condition met'),
  ('O=C(O)CN1CCC(c2c(/C=C/c3ccc4ccccc4n3)nc3c(N4CCOCC4)ccnn23)CC1 [Cpd 29, trifluoroacetic acid salt]', 'Condition not met'),
  ('O=C(O)CCNc1ccc(-c2c(/C=C/c3ccc4ccccc4n3)nc3c(N4CCOCC4)ccnn23)cc1 [Cpd 93, trifluoroacetic acid salt]', 'Condition met'),
  ('O=C(O)CNc1ccc(-c2c(/C=C/c3ccc4ccccc4n3)nc3c(N4CCOCC4)ccnn23)cn1', 'Condition met'),
  ('O=c1[nH]c(-c2ccc(-c3c(/C=C/c4ccc5ccccc5n4)nc4c(N5CCOCC5)ccnn34)cc2)no1', 'Condition met'),
  ('CC(C)[C@H](NC(=O)c1ccc(-c2c(C#Cc3ccc4ccccc4n3)nc3c(N4CCOCC4)ccnn23)cc1)C(=O)O [Cpd 101, trifluoroacetic acid salt]', 'Condition met'),
  ('O=S(=O)(Cc1nc2c(N3CCOCC3)ccnn2c1-c1ccc(N2CCNCC2)nc1)c1ccc2ccccc2n1 [Cpd 9, trifluoroacetic acid salt]', 'Condition not met'),
  ('O=C(O)c1ccc(-c2c(C#Cc3ccc4ccccc4n3)nc3c(N4CCOCC4)ccnn23)cc1', 'Condition met'),
  ('O=C(O)c1ccc(-c2c(C#Cc3nc4ccccc4[nH]3)nc3c(N4CCOCC4)ccnn23)cc1', 'Condition met'),
  ('O=C(O)c1cc2ccccc2nc1/C=C/c1cn2nc(Cl)cc(N3CCOCC3)c2n1', 'Condition met'),
  ('c1ccc2ncc(OCCc3nc4c(N5CCOCC5)ccnn4c3-c3ccc(N4CCNCC4)nc3)cc2c1 [Cpd 14, trifluoroacetic acid salt]', 'Condition not met');

* * *

Each entry below carries its recorded concentration at 2 h.
# Test Name: PDE10a perfused brain permeability study: plasma concentrations at 30 and 120 min, brain concentration at 120 min, brain/plasma ratio
# Condition Parameters: male, Sprague-Dawley, rat, brain
Where a name gives a salt, the structure may show the parent alone.
Result Type: concentration at 2 h (ng/g)

INSERT INTO results (compound, units, result) VALUES
  ('O=C(Nc1nc2c(N3CCOCC3)ccnn2c1-c1ccc(N2CCNCC2)nc1)c1ccc2ccccc2n1 [Cpd 8, trifluoroacetic acid salt]', 'ng/g', 38.8),
  ('O=C(O)c1ccc(-c2c(/C=C/c3ccc4ccccc4n3)nc3c(N4CCOCC4)ccnn23)cc1 [compound 40, trifluoroacetic acid salt]', 'ng/g', 0),
  ('O=C(O)c1ccc(-c2c(CCc3ccc4ccccc4n3)nc3c(N4CCOCC4)ccnn23)cc1', 'ng/g', 0),
  ('c1ccc2nc(SCc3nc4c(N5CCOCC5)ccnn4c3-c3ccc(N4CCNCC4)nc3)ccc2c1 [Cpd 6, trifluoroacetic acid salt]', 'ng/g', 52),
  ('Oc1nc(O)c(-c2ccc(-c3c(/C=C/c4ccc5ccccc5n4)nc4c(N5CCOCC5)ccnn34)cc2)o1', 'ng/g', 14.5),
  ('CS(=O)(=O)NC(=O)c1ccc(-c2c(/C=C/c3ccc4ccccc4n3)nc3c(N4CCOCC4)ccnn23)cn1 [Cpd 27, trifluoroacetic acid salt]', 'ng/g', 1.69),
  ('NS(=O)(=O)N1CCN(c2ccc(-c3c(CSc4ccc5ccccc5n4)nc4c(N5CCOCC5)ccnn34)cn2)CC1', 'ng/g', 152),
  ('O=C(O)c1ccc(-c2c(/C=C/c3ccc4ccccc4n3)nc3c(N4CCOCC4)ccnn23)cc1F', 'ng/g', 0),
  ('Oc1ncn(-c2ccc(-c3c(/C=C/c4ccc5ccccc5n4)nc4c(N5CCOCC5)ccnn34)cc2)n1 [Cpd 54, trifluoroacetic acid salt]', 'ng/g', 0),
  ('O=C(O)CNc1ccc(-c2c(C#Cc3ccc4ccccc4n3)nc3c(N4CCOCC4)ccnn23)cn1 [Cpd 24, trifluoroacetic acid salt]', 'ng/g', 1.35),
  ('CC(=O)NS(=O)(=O)c1ccc(-c2c(CCc3ccc4ccccc4n3)nc3c(N4CCOCC4)ccnn23)cc1', 'ng/g', 0),
  ('O=C(O)CCC(=O)Nc1ccc(-c2c(/C=C/c3ccc4ccccc4n3)nc3c(N4CCOCC4)ccnn23)cc1', 'ng/g', 0),
  ('CS(=O)(=O)NC(=O)c1ccc(-c2c(/C=C/c3ccc4ccccc4n3)nc3c(N4CCOCC4)ccnn23)cc1', 'ng/g', 0),
  ('O=C(O)CNc1ccc(-c2c(/C=C/c3ccc4ccccc4n3)nc3c(N4CCOCC4)ccnn23)cn1', 'ng/g', 0),
  ('O=C(O)CCNC(=O)c1ccc(-c2c(/C=C/c3ccc4ccccc4n3)nc3c(N4CCOCC4)ccnn23)cc1', 'ng/g', 0),
  ('O=C(O)CCc1ccc(-c2c(/C=C/c3ccc4ccccc4n3)nc3c(N4CCOCC4)ccnn23)cc1', 'ng/g', 0);
